Data provenance is patent US20240270821A1.

Target: hGcgR (Homo sapiens, UniProt P47871)
Sequence (P47871 26-477): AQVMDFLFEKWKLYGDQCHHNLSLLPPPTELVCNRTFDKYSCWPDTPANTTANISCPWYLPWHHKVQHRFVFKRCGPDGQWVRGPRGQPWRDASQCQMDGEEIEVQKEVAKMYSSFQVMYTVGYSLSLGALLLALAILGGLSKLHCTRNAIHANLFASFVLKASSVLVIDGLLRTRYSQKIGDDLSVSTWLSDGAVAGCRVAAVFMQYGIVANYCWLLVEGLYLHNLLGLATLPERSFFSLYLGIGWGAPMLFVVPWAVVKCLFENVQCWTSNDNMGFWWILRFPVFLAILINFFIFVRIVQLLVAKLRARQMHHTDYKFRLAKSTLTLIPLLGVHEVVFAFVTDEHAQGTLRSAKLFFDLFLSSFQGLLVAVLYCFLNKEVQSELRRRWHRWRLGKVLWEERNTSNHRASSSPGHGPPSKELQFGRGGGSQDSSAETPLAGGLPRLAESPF
Assay: Functional cAMP activation in the presence of 0.1% casein (no HSA);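 note: intracellular cAMP rise after 30 min at 37 °C, read by HTRF against a cAMP standard curve, scaled from buffer only (0%) to maximal control ligand response (100%)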
Type: cell-based
Conditions: in the presence of 0.1% casein (no HSA); geometric mean; read-out: Relative cAMP EC50, hGcgR
pEC50: −log10 of the molar value. Starred links: 1 amine or outer side, 2 acyl side, 3 side chain; linkers in the order of their positions; H or OH if unused. Non-standard residues stand in square brackets, D forms with d. Groups on a side chain read outwards from the residue. No end group written: not given here. *: point of attachment. C20 diacid = O=C(O)CCCCCCCCCCCCCCCCCCC(=O)*; C18 diacid = O=C(O)CCCCCCCCCCCCCCCCC(=O)*; αMePhe(2-F) = C[C@](N)(Cc1ccccc1F)C(=O)O; γGlu = O=C(O)[C@H](CCC(=O)[*:2])N[*:1]; NMeY = CN[C@@H](Cc1ccc(O)cc1)C(=O)O; αMe4Pal = C[C@](N)(Cc1ccncc1)C(=O)O; αMeY = C[C@](N)(Cc1ccc(O)cc1)C(=O)O; 4Pal = N[C@@H](Cc1ccncc1)C(=O)O; αMeL = CC(C)C[C@](C)(N)C(=O)O; αMeS = C[C@](N)(CO)C(=O)O; Orn = NCCC[C@H](N)C(=O)O; Dab = NCC[C@H](N)C(=O)O; AEEA = NCCOCCOCC(=O)O; Aib = CC(C)(N)C(=O)O
pEC50: recorded values

- Substance: "H-Y[Aib]QGTFTSDYSI[αMeL]LDKQAAK([AEEA-AEEA-γGlu-C20 diacid])QFVEWLIA[Aib]GPSSGEPPPGSG-NH2 [Example 335]"
  Tested target: "hGcgR (Homo sapiens, UniProt P47871)"
  pEC50: 8.21
- Substance: "H-[NMeY][Aib]QGTFTSD[4Pal][αMeS]Q[αMeL]LD[Orn]K([dE-γGlu-C18 diacid])AQ[αMe4Pal]QFIQ[αMeY]LIE[Aib]GPSSGAPPPSGGGE-NH2 [Example 1134]"
  Tested target: "hGcgR (Homo sapiens, UniProt P47871)"
  pEC50: 8.59
- Substance: "Y[Aib]QGT[αMePhe(2-F)]TSDYSKLLDKIAQK([AEEA-γGlu-C20 diacid])AFIQYLIEGGPSSGEPPPSEG-NH2 [Example 338]"
  Tested target: "hGcgR (Homo sapiens, UniProt P47871)"
  pEC50: 8.40
- Substance: "H-Y[Aib]QGTFTSD[4Pal]S[Dab][αMeL]LDKK([AEEA-γGlu-C18 diacid])AQ[Aib]AFIEYLIE[Aib]GESSGAPPPSGS-NH2 [Example 188]"
  Tested target: "hGcgR (Homo sapiens, UniProt P47871)"
  pEC50: 7.97
- Substance: "H-Y[Aib]QGTFTSDFS[Orn][αMeL]LDKK([AEEA-γGlu-C18 diacid])AQ[Aib]AFIEYLLE[Aib]GHSSGAPPPSGE-NH2 [Example 247]"
  Tested target: "hGcgR (Homo sapiens, UniProt P47871)"
  pEC50: 8.75
- Substance: "H-Y[Aib]QGTFTSDFS[Orn][αMeL]LDKK([AEEA-AEEA-γGlu-C18 diacid])AQ[Aib]AFIEYLLE[Aib]GHSSGAPPPSGE-NH2 [Example 186]"
  Tested target: "hGcgR (Homo sapiens, UniProt P47871)"
  pEC50: 8.33
